target: Neuropeptide Y receptor type 2 (Homo sapiens, UniProt P49146); assay: Binding affinity to NPYY2 receptor (unknown origin) preincubated for 20 mins
Sequence (P49146 whole entry): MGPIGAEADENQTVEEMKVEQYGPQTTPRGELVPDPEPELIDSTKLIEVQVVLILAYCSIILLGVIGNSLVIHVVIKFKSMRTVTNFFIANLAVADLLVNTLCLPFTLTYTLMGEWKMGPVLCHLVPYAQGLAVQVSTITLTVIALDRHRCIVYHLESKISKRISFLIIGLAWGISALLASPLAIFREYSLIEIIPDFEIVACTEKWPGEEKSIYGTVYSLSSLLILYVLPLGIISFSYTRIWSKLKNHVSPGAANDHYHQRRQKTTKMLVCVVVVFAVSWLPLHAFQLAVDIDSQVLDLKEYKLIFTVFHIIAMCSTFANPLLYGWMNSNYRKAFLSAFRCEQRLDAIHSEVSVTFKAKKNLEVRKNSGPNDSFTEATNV
measurement_kind: pKi
# reply with the number alone; pKi is -log10 of concentration in mol/L

# pKi (compound: CCC(=O)NCCNC(=O)CCCC(=O)NC(=N)NCCC[C@H](NC(=O)CC1(CC(=O)N2CCN(C3c4ccccc4NC(=O)c4ccccc43)CC2)CCCC1)C(=O)NCCn1c(=O)n(-c2ccccc2)n(-c2ccccc2)c1=O (stereo partly specified) ) is 8.00

====

biological target: Mu-type opioid receptor (Homo sapiens)
Sequence (P35372 whole entry): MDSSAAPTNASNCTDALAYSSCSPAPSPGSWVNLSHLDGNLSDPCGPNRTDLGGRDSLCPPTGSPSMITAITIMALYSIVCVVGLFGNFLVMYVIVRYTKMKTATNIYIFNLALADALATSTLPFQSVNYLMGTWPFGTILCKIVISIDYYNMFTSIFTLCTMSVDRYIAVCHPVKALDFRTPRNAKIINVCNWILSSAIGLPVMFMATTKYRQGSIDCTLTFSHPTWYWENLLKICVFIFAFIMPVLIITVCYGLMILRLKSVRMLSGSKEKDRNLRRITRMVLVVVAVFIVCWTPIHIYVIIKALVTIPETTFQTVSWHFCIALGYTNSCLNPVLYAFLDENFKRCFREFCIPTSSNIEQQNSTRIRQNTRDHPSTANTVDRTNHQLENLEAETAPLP
measurement_kind: Ki (nM)
Unit nM implied. Number only.

Query N=C(N)NCCCC(NC(=O)CC1(CC(=O)N2CCN(C3c4ccccc4NC(=O)c4ccccc43)CC2)CCCC1)C(=O)NCCn1c(=O)n(-c2ccccc2)n(-c2ccccc2)c1=O (single isomer, unassigned) yields Ki of 323

====

molecular target: Neuropeptide Y receptor type 2 (Homo sapiens); test: Displacement of [125I]-PYY from human NPYY2 receptor
API: label(entry) gives True if the entry's IC50 is strictly smaller than 100 nM; on equality or larger values it gives False.

> print(dat)
                                   compound    cat
1  CCC(CC)C(=O)Nc1ccc(N2CCN(C(c3ccccc3)c3nnc(C(C)C)o3)CC2)c(F)c1 (centres undefined)  False
2  CCN(CC)C(=O)C(c1ccccc1)N1CCN(c2ccc(-c3c(C)noc3C)cc2F)CC1 (centres undefined)  False
3  CCN(CC)C(=O)C(c1ccccc1)N1CCN(c2ccc(NC(=O)c3c(C)cnn3C(C)(C)C)cc2F)CC1 (centres undefined)  False
4  CCN(CC)C(=O)C(c1ccccc1)C1CCN(c2ccc(NC(=O)C3CCOC3)cc2F)CC1 (centres undefined)   True
5  CCC(CC)C(=O)Nc1ccc(N2CCN(C(c3ccccc3)C3CCOC3)CC2)c(F)c1 (centres undefined)   True
6  CCC(CC)C(=O)Nc1ccc(N2CCN(C(c3ccccc3)c3ncccn3)CC2)c(F)c1 (centres undefined)   True
7  CCN(CC)C(=O)C(c1ccccc1)N1CCN(c2ccc(NC(=O)c3c(C)cnn3CC)cc2F)CC1 (centres undefined)   True

-- ask For this compound, is IC50 lower than 100 nM? CCN(CC)C(=O)C(c1ccccc1)N1CCN(c2ccc(-c3cc(=O)n(C(C)C)[nH]3)cc2F)CC1 (centres undefined)
-- reply False

====

assay: Cmax in rat at 10 mg/kg, sc; type: ADME, organism-based; design: dose 10 mg/kg, route subcutaneous; conditions: in vivo
measurement_kind: Cmax (µM)
Respond with the bare value in µM.

Query CCN(CC)C(=O)C(c1ccccc1)N1CCN(c2ccc(NC(=O)c3ccccc3-c3cccnc3)cc2F)CC1 (stereo unspecified) yields Cmax of 4.35

====

assay: Bioavailability in rat at 10 mg/kg, sc; assay type: ADME, organism-based; details: in vivo
measurement_kind: bioavailability
The number alone won't do; follow it with the unit.

The value of bioavailability measured for the compound CCN(CC)C(=O)C(c1ccccc1)N1CCN(c2ccc(NC(=O)c3ccccc3-c3cccnc3)cc2F)CC1 (stereo unspecified) turned out to be 100%

====

molecular target: UniProtKB P49146; assay: Displacement of [125I]-PYY from human NPYY2 receptor
Some molecules, each annotated with its measured IC50.
Report as a plain number; the unit nM is understood.

These recorded examples may help you get a feel for the data.
> print(dat)
                                   molecule  reported
1  CCc1nc(C(c2ccccc2)N2CCN(c3ccc(NC(=O)C(CC)CC)cc3F)CC2)no1 (stereo unspecified)       150
2  CCC(CC)C(=O)Nc1ccc(N2CCN(C(c3ccccc3)c3nc(-c4ccccc4)no3)CC2)c(F)c1 (stereo unspecified)       720
3  CC(=O)N1CCc2ccc(N(C/C=C\c3ccccc3)C3CCN(Cc4ccccc4)CC3)cc21     22000
4  CCN(CC)C(=O)C(c1ccccc1)N1CCN(c2ccc(-c3cccnc3)cc2F)CC1 (stereo unspecified)       740
5  CCC(CC)C(=O)Nc1ccc(N2CCN(C(c3ccccc3)c3ncno3)CC2)c(F)c1 (stereo unspecified)       240

// next entry
Record CCC(CC)C(=O)Nc1ccc(N2CCN(C(c3ccccc3)c3nc(C(C)C)no3)CC2)c(F)c1 (stereo unspecified) , field IC50: 170
